Where do the numbers come from? From patent US20240158392A1.

- target: SIK2 (Homo sapiens, UniProt Q9H0K1)
- Sequence (Q9H0K1 whole entry, species assumed): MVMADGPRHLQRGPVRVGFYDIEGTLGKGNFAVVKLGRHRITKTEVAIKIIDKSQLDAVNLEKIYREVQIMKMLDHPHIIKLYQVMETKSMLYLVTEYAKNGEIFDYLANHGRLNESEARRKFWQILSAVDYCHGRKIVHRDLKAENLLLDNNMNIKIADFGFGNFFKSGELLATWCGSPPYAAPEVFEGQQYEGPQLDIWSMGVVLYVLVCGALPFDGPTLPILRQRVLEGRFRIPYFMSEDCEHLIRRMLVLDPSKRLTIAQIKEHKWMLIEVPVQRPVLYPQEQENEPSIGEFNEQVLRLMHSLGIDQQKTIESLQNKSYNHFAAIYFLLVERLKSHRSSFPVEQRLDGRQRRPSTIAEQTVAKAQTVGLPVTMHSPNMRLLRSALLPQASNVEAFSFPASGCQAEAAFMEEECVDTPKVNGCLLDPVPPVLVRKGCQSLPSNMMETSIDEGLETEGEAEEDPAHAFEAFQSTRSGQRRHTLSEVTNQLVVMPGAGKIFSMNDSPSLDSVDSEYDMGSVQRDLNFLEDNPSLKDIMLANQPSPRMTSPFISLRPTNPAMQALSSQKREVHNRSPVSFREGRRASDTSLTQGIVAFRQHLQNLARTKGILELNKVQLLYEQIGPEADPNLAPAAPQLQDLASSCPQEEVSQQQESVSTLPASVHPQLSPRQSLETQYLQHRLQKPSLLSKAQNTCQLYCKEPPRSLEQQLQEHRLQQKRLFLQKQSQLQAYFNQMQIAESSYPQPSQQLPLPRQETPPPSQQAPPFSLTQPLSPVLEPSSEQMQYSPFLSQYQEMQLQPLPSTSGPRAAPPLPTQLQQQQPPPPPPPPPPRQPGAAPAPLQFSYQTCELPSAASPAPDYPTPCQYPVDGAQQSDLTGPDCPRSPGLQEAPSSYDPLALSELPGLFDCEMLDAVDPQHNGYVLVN
- assay.details: SIK2 Enzymatic Assay High Version 2 (High ATP)
- Assay type: biochemical
- conditions.used: enzyme 6 nM, 6 mM ATP and 400 μM HDAC5tide (each 2× final concentration); 30 minutes pre-incubation, 2 hours; ADP-Glo Max luminescence; read-out: SIK2 high ATP IC50 (μM) (Test Example 2)
experimental.readout: IC50 (µM)
Use µM as the unit, but write only the number.

Below, 3 molecules whose answers are already recorded.
Value of measured IC50 for the entry Cc1cc(-c2ccn3nc(Nc4cc(C)nc(C)n4)cc3c2)c(OCC(C)(C)C#N)cn1 [Example 262] : 0.00231

Value of measured IC50 for the entry Cc1cc(-c2ccn3nc(NC(=O)C4CC4)cc3c2)c(O[C@H]2CC[C@](C)(O)CC2)cn1 [Example 151] : 0.00378

Value of measured IC50 for the entry O=C(Nc1cc2cc(-c3cc(OC(F)F)ncc3O[C@H]3CC[C@H](O)CC3)ccn2n1)C1CC1 [Example 723] : 0.00163

New cases:
Value of measured IC50 for the entry Cc1cc(-c2ccn3nc(Nc4cc(C)nc(C)n4)cc3c2)c(OC[C@@H]2CC3(CCCC3)CO2)cn1 (single isomer, unassigned) [Example 219] : 0.0497

Value of measured IC50 for the entry Cc1cc(-c2ccn3nc(NC(=O)C4CC4)cc3c2)c(OC[C@@]23CN[C@@H](CO2)C3)cn1 [Example 248] : 0.00712

Value of measured IC50 for the entry Cc1cc(Nc2cc3cc(-c4cc(OCC#N)ncc4OCC(C)(C)C#N)ccn3n2)nc(C)n1 [Example 672] : 0.004
